target: T1, soluble human PD-1 (the extracellular domain of human PD-1 fused to a human Fc Region) (human, UniProt Q15116 25-170); assay: ELISA: shPD-1 hFc coated at 0.5 ug/ml, goat anti-mouse IgG (H+L) detection, RLU
T1 construct: whole entry named; also called shPD-1 hFc; shPD-1-human Fc; not shown: human Fc Region
T1 sequence (Q15116 25-170): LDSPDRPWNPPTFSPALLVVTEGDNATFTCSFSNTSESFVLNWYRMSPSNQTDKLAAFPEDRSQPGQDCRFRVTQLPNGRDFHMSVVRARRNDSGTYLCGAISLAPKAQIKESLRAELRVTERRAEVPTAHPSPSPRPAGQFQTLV

- binder: "PD-1 mAb 12 (antibody, V domains shown, Murine monoclonal antibody) VH: QGHLQQSGAELVRPGASVTLSCKASGFTFTDYEMHWVKQTPVHGLEWIGTIDPETGGTAYNQKFKGKAILTVDKSSTTTYMELRSLTSEDSAVFYCSRERITTVVEGAYWYFDVWGTGTTVTVSS VL: DVLMTQTPLSLPVSLGDQASISCRSSQNIVHSNGNTYLEWYLQKPGQSPKLLICKVSTRFSGVPDRFSGSGSGTDFTLKISRVEAEDLGVYYCFQGSHVPYTFGGGTKLEIK"
  binding result: "binds"
- binder: "PD-1 mAb 14 (antibody, V domains shown, Murine monoclonal antibody) VH: QVQLQQPGAELVKPGASVKMSCKASGYNFISYWITWVKQRPGQGLQWIGNIYPGTDGTTYNEKFKSKATLTVDTSSSTAYMHLSRLTSEDSAVYYCATGLHWYFDVWGTGTTVTVSS VL: DIVMTQSQKFMSTSVGDRVSVTCKASQSVGTNVAWYQQKPGQSPKALIYSASSRFSGVPDRFTGSGSGTDFTLTISNVQSEDLAEYFCQQYNSYPYTFGGGTKLEIK"
  binding result: "binds"
